- System: Escherichia coli TOP10;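 further: peptides expressed intracellularly from a pBAD plasmid library in pooled LB shake-flask culture, induced with 0.3% L-arabinose, DNA abundance read by NGS, three biological replicates, DESeq2 with apeglm shrinkage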
- Test Summary: shrunken log2 fold change of peptide-encoding DNA abundance (4.5 h post-induction vs induction); higher = less antimicrobial activity (less host growth inhibition)
- Details: time post-induction: 4.5 h; library: site-saturation at positions 5, 18, 19, 20
sequences and their reported shrunken log2 fold change
Measure Name: shrunken log2 fold change

>>> df
         construct_sequence           tested_system   reported
 0  RRIRWRPPRLPRPRPRPDGKPRP  Escherichia coli TOP10    0.00353
 1  RRIRWRPPRLPRPRPRPSGGPRP  Escherichia coli TOP10       2.77
 2  RRIRGRPPRLPRPRPRPWRMPRP  Escherichia coli TOP10  -0.000462
 3  RRIRGRPPRLPRPRPRPAVFPRP  Escherichia coli TOP10      0.878
 4  RRIRSRPPRLPRPRPRPYNEPRP  Escherichia coli TOP10     -0.554
 5  RRIRCRPPRLPRPRPRPADLPRP  Escherichia coli TOP10      -0.24
 6  RRIRMRPPRLPRPRPRPMDNPRP  Escherichia coli TOP10     0.0672
 7  RRIRERPPRLPRPRPRPSCHPRP  Escherichia coli TOP10     -0.934
 8  RRIRQRPPRLPRPRPRPHFLPRP  Escherichia coli TOP10     -0.218
 9  RRIRFRPPRLPRPRPRPGWTPRP  Escherichia coli TOP10     -0.115
10  RRIRNRPPRLPRPRPRPAAQPRP  Escherichia coli TOP10      0.401
11  RRIRLRPPRLPRPRPRPYRCPRP  Escherichia coli TOP10     -0.268
12  RRIRPRPPRLPRPRPRPKCVPRP  Escherichia coli TOP10     0.0688
13  RRIRSRPPRLPRPRPRPWTAPRP  Escherichia coli TOP10      -0.22
14  RRIRERPPRLPRPRPRPYAHPRP  Escherichia coli TOP10    -0.0128
15  RRIRVRPPRLPRPRPRPGFCPRP  Escherichia coli TOP10      0.352
16  RRIRIRPPRLPRPRPRPYASPRP  Escherichia coli TOP10     -0.206
17  RRIRARPPRLPRPRPRPSLTPRP  Escherichia coli TOP10      0.172
18  RRIRFRPPRLPRPRPRPCSSPRP  Escherichia coli TOP10     0.0898
19  RRIRKRPPRLPRPRPRPWYVPRP  Escherichia coli TOP10     -0.958
20  RRIRRRPPRLPRPRPRPWMQPRP  Escherichia coli TOP10     0.0811
21  RRIRWRPPRLPRPRPRPGPIPRP  Escherichia coli TOP10      0.171
22  RRIRVRPPRLPRPRPRPEPQPRP  Escherichia coli TOP10      0.363
23  RRIRWRPPRLPRPRPRPFMQPRP  Escherichia coli TOP10     -0.261
24  RRIRSRPPRLPRPRPRPKDWPRP  Escherichia coli TOP10       0.21
25  RRIRCRPPRLPRPRPRPSRGPRP  Escherichia coli TOP10      0.333
26  RRIRHRPPRLPRPRPRPPTCPRP  Escherichia coli TOP10     0.0978
27  RRIRYRPPRLPRPRPRPLANPRP  Escherichia coli TOP10     -0.371
28  RRIRARPPRLPRPRPRPSLIPRP  Escherichia coli TOP10    -0.0273
29  RRIRMRPPRLPRPRPRPKIYPRP  Escherichia coli TOP10     -0.107
30  RRIRPRPPRLPRPRPRPIDNPRP  Escherichia coli TOP10      -0.15
31  RRIRQRPPRLPRPRPRPDKNPRP  Escherichia coli TOP10     -0.635
